- ASSAY SYSTEM: native, highly purified SAP2 preparation (Candida albicans, UniProt P0CS83 57-398)
- Sequence (P0CS83 57-398 limits assumed): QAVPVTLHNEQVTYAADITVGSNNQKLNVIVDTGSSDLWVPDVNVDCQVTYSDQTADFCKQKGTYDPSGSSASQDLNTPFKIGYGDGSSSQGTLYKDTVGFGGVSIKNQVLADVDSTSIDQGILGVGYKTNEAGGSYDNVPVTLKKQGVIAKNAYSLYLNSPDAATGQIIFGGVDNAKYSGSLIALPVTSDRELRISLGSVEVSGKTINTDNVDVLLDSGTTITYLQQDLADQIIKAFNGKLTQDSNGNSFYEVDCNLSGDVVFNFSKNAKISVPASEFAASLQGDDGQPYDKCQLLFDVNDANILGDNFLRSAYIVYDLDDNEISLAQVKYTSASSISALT
- ASSAY: cell-based or functional assay
Known % Inhibition (BSA degradation, proteinase enzyme assay) of a selection of binders
REPORTED ENDPOINT: % Inhibition (BSA degradation, proteinase enzyme assay) (%)

BINDER	OBSERVED VALUE
ADR4-9 (other) EVQLLESGGGLVQPGGSLRLSCAASGVRLSHQVMGWVRQAPGKGLEWVSAIRSSDGSTYYADSVKGRFTISRDNSKNTLYLQMNSLRAEDTAVYYCAGWRSAKSQMHYWGQGTLVTVSS	5
ADR4-13 (other) EVQLLESGGGLVQPGGSLRLSCAASGFSISYKNMAWVRQAPGKGLEWVSAIKAANGSTYYADSVKGRFTISRDNSKNTLYLQMNSLRAEDTAVYYCATGSQKKRTYTFDFWGQGTLVTVSS	82
ADR4-12 (other) EVQLLESGGGLVQPGGSLRLSCAASGDTVSSKAMAWVRQAPGKGLEWVSGIFIPNGSTYYADSVKGRFTISRDNSKNTLYLQMNSLRAEDTAVYYCAAKQRAVLSRWGSSTEFGSWGQGTLVTVSS	60
